Values compiled from paper PMC9080015.

- target under test: recombinant human CYP1B1 (Homo sapiens)
- test summary: EROD assay, recombinant human CYP1B1 inhibition
- Assay type: biochemical
pIC50: −log10 of the molar value.
endpoint name: pIC50

A. O=c1c(O)c(-c2ccc(F)cc2)[nH]c2c1ccc1ccccc12
B. O=c1cc(-c2ccccc2)[nH]c2c1ccc1ccccc12 [Compound 3e, 2-Phenylbenzo[h]quinolin-4(1H)-one]
C. COc1cccc(-c2cc(=O)c3cc(OC)c4cccc(OC)c4c3[nH]2)c1
Query block: // smallest pIC50 at index 0, largest at the end Returns: the labels listed in the requested order.
Result block: A, B, C

I. O=c1c(O)c(-c2ccccc2)[nH]c2c1ccc1ccccc12
II. O=C1c2ccc3ccccc3c2N[C@@H](c2ccccc2)[C@H]1O
III. COc1cc(-c2cc(=O)c3cc(OC)c4cccc(OC)c4c3[nH]2)cc(OC)c1OC
IV. COc1cc2c(=O)cc(-c3ccc(C(F)(F)F)cc3)[nH]c2c2c(OC)cccc12
V. COc1cc(C2CC(=O)c3ccc4ccccc4c3N2)cc(OC)c1OC (stereo not drawn)
Query block: Hi! Can you put these in order of pIC50, lowest number first? Returns: the labels listed in the requested order.
Result block: II, III, I, IV, V
(II: 6.59, III: 6.79, I: 7.06, IV: 7.46, V: 7.69)

----------
# Lookup of reported IC50 keyed by entry
- target under test: CYP1A2 (Homo sapiens)
- Sequence (P05177 2-516 limits assumed): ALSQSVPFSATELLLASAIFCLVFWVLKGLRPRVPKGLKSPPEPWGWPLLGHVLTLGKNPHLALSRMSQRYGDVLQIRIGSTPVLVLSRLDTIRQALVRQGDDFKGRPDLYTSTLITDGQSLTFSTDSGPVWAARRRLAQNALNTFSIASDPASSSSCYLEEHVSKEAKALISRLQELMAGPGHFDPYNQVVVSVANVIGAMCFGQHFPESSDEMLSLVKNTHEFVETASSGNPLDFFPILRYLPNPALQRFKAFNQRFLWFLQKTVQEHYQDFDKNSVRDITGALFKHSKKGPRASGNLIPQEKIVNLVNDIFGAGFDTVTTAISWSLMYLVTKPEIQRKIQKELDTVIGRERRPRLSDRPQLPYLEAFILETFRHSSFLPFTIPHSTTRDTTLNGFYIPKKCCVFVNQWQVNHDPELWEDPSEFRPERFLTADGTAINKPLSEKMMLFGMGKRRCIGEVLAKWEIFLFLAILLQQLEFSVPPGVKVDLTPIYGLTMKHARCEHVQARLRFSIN
- test summary: EROD assay, recombinant human CYP1A2 inhibition
- Format: biochemical

> print(dat)
                                   compound  measured.value
1  O=c1c(O)c(-c2ccccc2F)[nH]c2c1ccc1ccccc12 [Compound 3b]          > 5 µM

Query block: Identify measured IC50 corresponding to COc1cc(C2CC(=O)c3ccc4ccccc4c3N2)cc(OC)c1OC (stereo not drawn) [Compound 1b]
Result block: > 5 µM

Query block: Identify measured IC50 corresponding to COc1cc(-c2cc(=O)c3cc(OC)c4cccc(OC)c4c3[nH]2)cc(OC)c1OC [Compound 5j]
Result block: > 5 µM

----------
- target under test: recombinant human CYP1B1 (Homo sapiens, UniProt Q16678)
- Sequence (Q16678 1-543): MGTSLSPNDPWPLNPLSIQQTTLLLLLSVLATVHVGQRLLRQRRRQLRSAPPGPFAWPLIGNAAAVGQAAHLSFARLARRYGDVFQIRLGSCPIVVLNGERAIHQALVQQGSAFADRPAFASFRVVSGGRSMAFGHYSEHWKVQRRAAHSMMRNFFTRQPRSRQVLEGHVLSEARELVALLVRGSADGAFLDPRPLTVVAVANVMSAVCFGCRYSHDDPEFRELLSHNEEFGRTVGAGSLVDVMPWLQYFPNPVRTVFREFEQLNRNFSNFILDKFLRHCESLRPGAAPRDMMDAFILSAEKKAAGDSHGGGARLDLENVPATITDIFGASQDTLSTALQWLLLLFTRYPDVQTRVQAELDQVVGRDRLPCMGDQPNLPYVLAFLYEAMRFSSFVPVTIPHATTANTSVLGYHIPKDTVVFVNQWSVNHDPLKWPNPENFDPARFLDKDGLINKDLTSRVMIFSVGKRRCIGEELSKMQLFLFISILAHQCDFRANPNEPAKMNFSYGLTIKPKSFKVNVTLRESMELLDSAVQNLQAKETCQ
- test summary: EROD assay, recombinant human CYP1B1 inhibition
- Format: biochemical
- conditions used: selectivity for CYP1B1 over CYP1A1
endpoint name: IC50 ratio 1A1/1B1

> print(dat)
                                   compound       endpoint.name  measured.value
1  COc1cc(-c2cc(=O)c3cc(OC)c4cccc(OC)c4c3[nH]2)cc(OC)c1OC  IC50 ratio 1A1/1B1             4.9
2  O=C1CC(c2cccc(F)c2)Nc2c1ccc1ccccc21 (stereo not shown)  IC50 ratio 1A1/1B1             5.0
3  COc1cccc(-c2cc(=O)c3cc(OC)c4cccc(OC)c4c3[nH]2)c1  IC50 ratio 1A1/1B1             5.0
4  COc1cc2c(=O)cc(-c3cccc(F)c3)[nH]c2c2c(OC)cccc12  IC50 ratio 1A1/1B1             5.0
